tested on: F9; experiment: Induction of terminal differentiation in mouse F9 cells assessed by measuring secreted plasminogen activator activity after 3 days; type: functional, cell-based; conditions: F9, 72 h, read-out: IC50 (the source's name)
endpoint.name: pEC50
Numbers only, as −log10 of the molar value.

{"columns": ["smiles.structure", "pEC50"],
 "data": [
  ["CC1(C)CCC(C)(C)c2cc(-c3ccc(/C=C/C(=O)O)cc3)ccc21", 9.52],
  ["Cc1c(-c2ccc3c(c2)C(C)(C)CCC3(C)C)ccc2cc(C(=O)O)ccc12", 8.52]
]}

# context switch: different compound, same pEC50
*Q* For CC1(C)CCC(C)(C)c2cc(-c3ccc4cc(C(=O)O)ccc4c3)ccc21 , what is its reported pEC50?
*A* 9.00
